- TARGET UNDER TEST: panel of 255 wild-type kinases (Homo sapiens)
- ASSAY NAME: Kinase panel profiling at 1 µmol/L (MSA or IMAP), percentage inhibition
- Type: biochemical
- APPLIED CONDITIONS: kinase PKACγ; 1 µmol/L single concentration; read-out: %-inhibition at 1 µmol/L, PKACγ
MEASURED PARAMETER: inhibition at 1 µM (%)

>  <COMPOUND STRING>
Cc1nc(NC(=O)N2CCC[C@H]2C(N)=O)sc1-c1ccnc(C(C)(C)C(F)(F)F)c1

>  <TARGET UNDER TEST>
panel of 255 wild-type kinases (Homo sapiens)

>  <MEASURED PARAMETER>
inhibition at 1 µM

>  <OBSERVED MEASUREMENT>
-7.38

$$$$
>  <COMPOUND STRING>
COC(=O)N[C@@H](C)CNc1nccc(-c2cn(C(C)C)nc2-c2cc(Cl)cc(NS(C)(=O)=O)c2F)n1

>  <TARGET UNDER TEST>
panel of 255 wild-type kinases (Homo sapiens)

>  <MEASURED PARAMETER>
inhibition at 1 µM

>  <OBSERVED MEASUREMENT>
-2.32

$$$$
>  <COMPOUND STRING>
Cc1cc(Nc2ncnc3ccc(NC4=NC(C)(C)CO4)cc23)ccc1Oc1ccn2ncnc2c1

>  <TARGET UNDER TEST>
panel of 255 wild-type kinases (Homo sapiens)

>  <MEASURED PARAMETER>
inhibition at 1 µM

>  <OBSERVED MEASUREMENT>
-0.548

$$$$
>  <COMPOUND STRING>
CCN1C(=O)N(c2c(F)c(OC)cc(OC)c2F)Cc2cnc3[nH]c(CN4CCOCC4)cc3c21

>  <TARGET UNDER TEST>
panel of 255 wild-type kinases (Homo sapiens)

>  <MEASURED PARAMETER>
inhibition at 1 µM

>  <OBSERVED MEASUREMENT>
-3.56

$$$$

* * *

- TARGET UNDER TEST: panel of 255 wild-type kinases (Homo sapiens)
- ASSAY NAME: Kinase panel profiling at 1 µmol/L (MSA or IMAP), percentage inhibition
- Type: biochemical
- APPLIED CONDITIONS: kinase Erk2; 1 µmol/L single concentration; read-out: %-inhibition at 1 µmol/L, Erk2
Attribute: inhibition at 1 µM
MEASURED PARAMETER: inhibition at 1 µM (%)

>  <COMPOUND>
COc1cc2ncnc(Nc3ccc(F)c(Cl)c3)c2cc1NC(=O)/C=C/CN1CCCCC1 [dacomitinib]

>  <TARGET UNDER TEST>
panel of 255 wild-type kinases (Homo sapiens)

>  <MEASURED PARAMETER>
inhibition at 1 µM

>  <OBSERVED MEASUREMENT>
-1.48

$$$$
>  <COMPOUND>
Cc1nc(NC(=O)N2CCC[C@H]2C(N)=O)sc1-c1ccnc(C(C)(C)C(F)(F)F)c1 [alpelisib]

>  <TARGET UNDER TEST>
panel of 255 wild-type kinases (Homo sapiens)

>  <MEASURED PARAMETER>
inhibition at 1 µM

>  <OBSERVED MEASUREMENT>
-0.753

$$$$
>  <COMPOUND>
Cn1cnc2c(F)c(Nc3ccc(Br)cc3F)c(C(=O)NOCCO)cc21 [binimetinib]

>  <TARGET UNDER TEST>
panel of 255 wild-type kinases (Homo sapiens)

>  <MEASURED PARAMETER>
inhibition at 1 µM

>  <OBSERVED MEASUREMENT>
0.0301

$$$$
>  <COMPOUND>
COC(=O)N[C@@H](C)CNc1nccc(-c2cn(C(C)C)nc2-c2cc(Cl)cc(NS(C)(=O)=O)c2F)n1 [encorafenib]

>  <TARGET UNDER TEST>
panel of 255 wild-type kinases (Homo sapiens)

>  <MEASURED PARAMETER>
inhibition at 1 µM

>  <OBSERVED MEASUREMENT>
2.55

$$$$
